# Tested on: 994946-033-R-J1-PDC complex spheroid viability
# METHOD SUMMARY: Anticancer human tumor 994946-033-R-J1-PDC patient-derived melanoma cell line growth inhibition [POLQ]
# TEST PARAMETERS: second compound 1 µM; first compound 0.0316 µM; hits give low values
Please respond with Criterion met when measured viability, T/C is strictly beneath 60%, and with Criterion not met in all other cases.

MOLECULE	TESTED TARGET	CLASSIFICATION
CC1COCCN1c1cc(C2(S(C)(=N)=O)CC2)nc(-c2ccnc3[nH]ccc23)n1 (stereo not given) + Cc1cccc(N(C)C(=O)C2C(O)CCN2c2nc(C)cc(C(F)(F)F)c2C#N)c1	994946-033-R-J1-PDC complex spheroid viability	Criterion not met
COc1cccc(OCCCN)c1-c1cc(Nc2cnc(C#N)cn2)n[nH]1 + Nc1ccc(C#CCN(C(=O)Cc2ncc(C(F)(F)F)cc2C(F)(F)F)c2ccc(F)cc2)nn1	994946-033-R-J1-PDC complex spheroid viability	Criterion met
CCc1c2c(nc3ccc(O)cc13)-c1cc3c(c(=O)n1C2)COC(=O)[C@]3(O)CC + Nc1ccc(C#CCN(C(=O)Cc2ncc(C(F)(F)F)cc2C(F)(F)F)c2ccc(F)cc2)nn1	994946-033-R-J1-PDC complex spheroid viability	Criterion met

Attention now turns to another entry.
Dear colleague, could you confirm whether viability, T/C of CC(C)n1c(=O)n(C)c2cnc3cc(F)c(-c4ccc(OCCCN5CCCCC5)nc4)cc3c21 + Cc1cccc(N(C)C(=O)C2C(O)CCN2c2nc(C)cc(C(F)(F)F)c2C#N)c1 falls below 60%? Thanks.
Criterion not met

====

The entries below are paired with their reported viability, T/C.
# Test system: 994946-033-R-J1-PDC complex spheroid viability
# METHOD SUMMARY: Anticancer human tumor 994946-033-R-J1-PDC cell line growth inhibition [POLQ];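 further: spheroids exposed to drugs for 7 days; 100% = DMSO vehicle treated spheroids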
# TEST PARAMETERS: second compound 10 µM; first compound 0.000316 µM; hits give low values
Report only the number, with the unit % understood.

MOLECULE	viability, T/C / %
CC[C@@]1(O)C(=O)OCc2c1cc1n(c2=O)Cc2cc3c(CN(C)C)c(O)ccc3nc2-1 + Cc1cccc(N(C)C(=O)C2C(O)CCN2c2nc(C)cc(C(F)(F)F)c2C#N)c1	113
Cn1ncnc1[C@H]1c2n[nH]c(=O)c3cc(F)cc(c23)N[C@@H]1c1ccc(F)cc1 + Cc1cccc(N(C)C(=O)C2C(O)CCN2c2nc(C)cc(C(F)(F)F)c2C#N)c1	109

Now consider the entry below.
I have this molecule here, CC[C@@]1(O)C(=O)OCc2c1cc1n(c2=O)Cc2cc3c(CN(C)C)c(O)ccc3nc2-1 + COC1C(OC(N)=O)C(O)C(Oc2ccc3c(O)c(NC(=O)c4ccc(O)c(CC=C(C)C)c4)c(=O)oc3c2C)OC1(C)C , and I need its recorded viability, T/C.
85.5

====

A collection of compounds and their measured viability, T/C
# Test system: 994946-033-R-J1-PDC complex spheroid viability
# METHOD SUMMARY: Anticancer human tumor 994946-033-R-J1-PDC cell line growth inhibition [POLQ];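 further: spheroids exposed to drugs for 7 days; 100% = DMSO vehicle treated spheroids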
# TEST PARAMETERS: second compound 10 µM; first compound 3.16 µM; hits give low values
Use % as the unit, but write only the number.

COMPOUND	UNITS SYMBOL	viability, T/C
COc1ccc([C@@H](O)c2cc(-c3ncnc4cc(N5CCOCC5)ccc34)c(F)cc2Cl)nn1 + Nc1ccc(C#CCN(C(=O)Cc2ncc(C(F)(F)F)cc2C(F)(F)F)c2ccc(F)cc2)nn1	%	62.2
CC1COCCN1c1cc(-c2ccnn2C)c2ccnc(-c3ccn[nH]3)c2n1 (stereo not given) + Nc1ccc(C#CCN(C(=O)Cc2ncc(C(F)(F)F)cc2C(F)(F)F)c2ccc(F)cc2)nn1	%	21.6
CC1COCCN1c1cc(-c2ccnn2C)c2ccnc(-c3ccn[nH]3)c2n1 (stereo not given) + COC1C(OC(N)=O)C(O)C(Oc2ccc3c(O)c(NC(=O)c4ccc(O)c(CC=C(C)C)c4)c(=O)oc3c2C)OC1(C)C	%	18.5

Reported viability, T/C, compound CC(C)n1c(=O)n(C)c2cnc3cc(F)c(-c4ccc(OCCCN5CCCCC5)nc4)cc3c21 + COC1C(OC(N)=O)C(O)C(Oc2ccc3c(O)c(NC(=O)c4ccc(O)c(CC=C(C)C)c4)c(=O)oc3c2C)OC1(C)C : ____
62.1

May I ask what viability, T/C has been recorded for CCc1cc2c(N3CCc4c(cc(Cn5ccnc5)cc4-c4cn(C)nc4C(F)(F)F)C3=O)ccnc2c(OC)n1 + Cc1cccc(N(C)C(=O)C2C(O)CCN2c2nc(C)cc(C(F)(F)F)c2C#N)c1 ?
71.7

====

# Test system: 994946-033-R-J1-PDC complex spheroid viability
# METHOD SUMMARY: Anticancer human tumor 994946-033-R-J1-PDC cell line growth inhibition [POLQ];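 further: spheroids exposed to drugs for 7 days; 100% = DMSO vehicle treated spheroids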
# TEST PARAMETERS: second compound 0.1 µM; first compound 0.0316 µM; hits give low values
# Procedure: Multicellular complex tumor spheroid response to Polymerase (POL) inhibitors (novobiocin, ART-558, RP6685) in combination with a variety of drugs and investigational agents in selected tumor cell lines The POL inhibitors (novobiocin, ART-558, and RP6685) were evaluated both individually and in combination with standard of care and investigational anticancer small molecules within a complex spheroid model of solid tumors. . […]
Collected viability, T/C values appear next to each entry.

COMPOUND	viability, T/C
CCCS(=O)(=O)Nc1ccc(F)c(C(=O)c2c[nH]c3ncc(-c4ccc(Cl)cc4)cc23)c1F + Nc1ccc(C#CCN(C(=O)Cc2ncc(C(F)(F)F)cc2C(F)(F)F)c2ccc(F)cc2)nn1	99.6%
C=CCn1c(=O)c2cnc(Nc3ccc(N4CCN(C)CC4)cc3)nc2n1-c1cccc(C(C)(C)O)n1 + COC1C(OC(N)=O)C(O)C(Oc2ccc3c(O)c(NC(=O)c4ccc(O)c(CC=C(C)C)c4)c(=O)oc3c2C)OC1(C)C	117%
COc1cc2cc(C(=O)CCC(=O)O)sc2cc1OC + COC1C(OC(N)=O)C(O)C(Oc2ccc3c(O)c(NC(=O)c4ccc(O)c(CC=C(C)C)c4)c(=O)oc3c2C)OC1(C)C	89.9%
CCc1c2c(nc3ccc(O)cc13)-c1cc3c(c(=O)n1C2)COC(=O)[C@]3(O)CC + COC1C(OC(N)=O)C(O)C(Oc2ccc3c(O)c(NC(=O)c4ccc(O)c(CC=C(C)C)c4)c(=O)oc3c2C)OC1(C)C	4.91%

Data request, read-out viability, T/C, for COc1cc2cc(C(=O)CCC(=O)O)sc2cc1OC + Cc1cccc(N(C)C(=O)C2C(O)CCN2c2nc(C)cc(C(F)(F)F)c2C#N)c1
116%

====

# System: 994946-033-R-J1-PDC complex spheroid viability
# METHOD SUMMARY: Anticancer human tumor 994946-033-R-J1-PDC cell line growth inhibition [POLQ];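 further: spheroids exposed to drugs for 7 days; 100% = DMSO vehicle treated spheroids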
# TEST PARAMETERS: second compound 3.16 µM; first compound 0.0316 µM; hits give low values
TEST READOUT: viability, T/C

COMPOUND	VALUE REPORTED
COc1ccc([C@@H](O)c2cc(-c3ncnc4cc(N5CCOCC5)ccc34)c(F)cc2Cl)nn1 + COC1C(OC(N)=O)C(O)C(Oc2ccc3c(O)c(NC(=O)c4ccc(O)c(CC=C(C)C)c4)c(=O)oc3c2C)OC1(C)C	91.7%
C=CC(=O)N1CCN(c2nc(=O)n(-c3c(C)ccnc3C(C)C)c3nc(-c4c(O)cccc4F)c(F)cc23)C(C)C1 (stereo not given) + Nc1ccc(C#CCN(C(=O)Cc2ncc(C(F)(F)F)cc2C(F)(F)F)c2ccc(F)cc2)nn1	80.7%
O=C(Nc1ccc(O)c(NS(=O)(=O)c2ccc(F)cc2)c1)c1ccc(-c2ccccc2)cc1 + COC1C(OC(N)=O)C(O)C(Oc2ccc3c(O)c(NC(=O)c4ccc(O)c(CC=C(C)C)c4)c(=O)oc3c2C)OC1(C)C	97.8%
CC1COCCN1c1cc(C2(O)CC3CCC(C2)O3)c2cnn(-c3ccn[nH]3)c2n1 (stereo not given) + Cc1cccc(N(C)C(=O)C2C(O)CCN2c2nc(C)cc(C(F)(F)F)c2C#N)c1	51.6%

Which viability, T/C is reported for this compound? O=c1[nH]cc(F)c(=O)[nH]1 + Nc1ccc(C#CCN(C(=O)Cc2ncc(C(F)(F)F)cc2C(F)(F)F)c2ccc(F)cc2)nn1
97.2%

====

# System: 994946-033-R-J1-PDC complex spheroid viability
# METHOD SUMMARY: Anticancer human tumor 994946-033-R-J1-PDC cell line growth inhibition [POLQ]; active = viability on the fitted dose curve at most 10% of control; inactive = the rest;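 further: spheroids exposed to drugs for 7 days; 100% = DMSO vehicle treated spheroids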
# TEST PARAMETERS: second compound 1 µM; first compound 0.0316 µM
Field 'call' accepts Yes for active, No for inactive

Here are 5 molecules together with their reported answers.
MOLECULE	CLASSIFICATION
CC[C@@]1(O)C(=O)OCc2c1cc1n(c2=O)Cc2cc3c(CN(C)C)c(O)ccc3nc2-1 + Cc1cccc(N(C)C(=O)C2C(O)CCN2c2nc(C)cc(C(F)(F)F)c2C#N)c1	No
Nc1ccn(C2OC(CO)C(O)C2(F)F)c(=O)n1 (stereo unspecified) + COC1C(OC(N)=O)C(O)C(Oc2ccc3c(O)c(NC(=O)c4ccc(O)c(CC=C(C)C)c4)c(=O)oc3c2C)OC1(C)C	No
CC1COCCN1c1cc(C2(O)CC3CCC(C2)O3)c2cnn(-c3ccn[nH]3)c2n1 (stereo unspecified) + COC1C(OC(N)=O)C(O)C(Oc2ccc3c(O)c(NC(=O)c4ccc(O)c(CC=C(C)C)c4)c(=O)oc3c2C)OC1(C)C	No
O=C(Nc1ccc(O)c(NS(=O)(=O)c2ccc(F)cc2)c1)c1ccc(-c2ccccc2)cc1 + Cc1cccc(N(C)C(=O)C2C(O)CCN2c2nc(C)cc(C(F)(F)F)c2C#N)c1	No
C=CCn1c(=O)c2cnc(Nc3ccc(N4CCN(C)CC4)cc3)nc2n1-c1cccc(C(C)(C)O)n1 + Cc1cccc(N(C)C(=O)C2C(O)CCN2c2nc(C)cc(C(F)(F)F)c2C#N)c1	No

What outcome does the record of this test show for CC1COCCN1c1cc(-c2ccnn2C)c2ccnc(-c3ccn[nH]3)c2n1 (stereo unspecified) + COC1C(OC(N)=O)C(O)C(Oc2ccc3c(O)c(NC(=O)c4ccc(O)c(CC=C(C)C)c4)c(=O)oc3c2C)OC1(C)C ?
No

Status in this test for C=CCn1c(=O)c2cnc(Nc3ccc(N4CCN(C)CC4)cc3)nc2n1-c1cccc(C(C)(C)O)n1 + Nc1ccc(C#CCN(C(=O)Cc2ncc(C(F)(F)F)cc2C(F)(F)F)c2ccc(F)cc2)nn1 ?
No

Record request — test call for COc1cc2cc(C(=O)CCC(=O)O)sc2cc1OC + Cc1cccc(N(C)C(=O)C2C(O)CCN2c2nc(C)cc(C(F)(F)F)c2C#N)c1
No

# lookup: test call for CCc1c2c(nc3ccc(O)cc13)-c1cc3c(c(=O)n1C2)COC(=O)[C@]3(O)CC + Cc1cccc(N(C)C(=O)C2C(O)CCN2c2nc(C)cc(C(F)(F)F)c2C#N)c1
Yes

Per the records of this test, what outcome belongs to COc1cccc(OCCCN)c1-c1cc(Nc2cnc(C#N)cn2)n[nH]1 + Cc1cccc(N(C)C(=O)C2C(O)CCN2c2nc(C)cc(C(F)(F)F)c2C#N)c1 ?
No

Returns: the outcome recorded for C=CC(=O)N1CCN(c2nc(=O)n(-c3c(C)ccnc3C(C)C)c3nc(-c4c(O)cccc4F)c(F)cc23)C(C)C1 (stereo unspecified) + Nc1ccc(C#CCN(C(=O)Cc2ncc(C(F)(F)F)cc2C(F)(F)F)c2ccc(F)cc2)nn1 in this assay.
No

Check the results log: what was the call for COc1cc2cc(C(=O)CCC(=O)O)sc2cc1OC + COC1C(OC(N)=O)C(O)C(Oc2ccc3c(O)c(NC(=O)c4ccc(O)c(CC=C(C)C)c4)c(=O)oc3c2C)OC1(C)C ?
No

Short answer needed: outcome of this test for CC1COCCN1c1cc(C2(S(C)(=N)=O)CC2)nc(-c2ccnc3[nH]ccc23)n1 (stereo unspecified) + COC1C(OC(N)=O)C(O)C(Oc2ccc3c(O)c(NC(=O)c4ccc(O)c(CC=C(C)C)c4)c(=O)oc3c2C)OC1(C)C ?
No

In this assay, the call recorded for Cn1ncnc1[C@H]1c2n[nH]c(=O)c3cc(F)cc(c23)N[C@@H]1c1ccc(F)cc1 + Cc1cccc(N(C)C(=O)C2C(O)CCN2c2nc(C)cc(C(F)(F)F)c2C#N)c1 was what?
No

Hey, what did the test say about O=C(c1cc(Cc2n[nH]c(=O)c3ccccc23)ccc1F)N1CCN(C(=O)C2CC2)CC1 + COC1C(OC(N)=O)C(O)C(Oc2ccc3c(O)c(NC(=O)c4ccc(O)c(CC=C(C)C)c4)c(=O)oc3c2C)OC1(C)C ?
No
